Source of measurements: the supplement of paper PMC7877785

Provide the recorded self-splicing fitness (ln) for the entries that follow.
# Assay info: self-splicing fitness, log relative to wild type (ln ratio); higher = more splicing; Tetrahymena group I intron in knt gene, E. coli kanamycin selection, DiMSum; sequences stand for … in CUCUCU…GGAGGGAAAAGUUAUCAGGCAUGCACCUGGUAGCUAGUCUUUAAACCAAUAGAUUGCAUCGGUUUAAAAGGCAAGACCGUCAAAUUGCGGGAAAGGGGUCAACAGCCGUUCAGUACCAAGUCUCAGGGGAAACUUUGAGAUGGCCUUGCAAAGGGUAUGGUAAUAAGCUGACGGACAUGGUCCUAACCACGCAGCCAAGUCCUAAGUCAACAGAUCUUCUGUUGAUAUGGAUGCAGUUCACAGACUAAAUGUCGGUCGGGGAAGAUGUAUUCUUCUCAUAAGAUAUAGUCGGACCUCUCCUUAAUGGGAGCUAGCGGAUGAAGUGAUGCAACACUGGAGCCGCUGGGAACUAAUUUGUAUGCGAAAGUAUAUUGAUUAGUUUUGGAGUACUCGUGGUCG;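 also: selection with 25 µg/mL kanamycin versus none on LB agar overnight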
# Condition set: 37 °C
One number for each entry.

Here is how some sequences turned out for self-splicing fitness (ln).
Q: Would you kindly share the measured self-splicing fitness (ln) for GACGAGCAAUAUUACGGAAG ?
Result: -2.5

Q: Would you kindly share the measured self-splicing fitness (ln) for UACCAGCAAUAUUACGGCUU ?
Result: 0.59

Q: Would you kindly share the measured self-splicing fitness (ln) for CACGAGCAAUAUUACGUGCG ?
Result: -2.09

Q: Would you kindly share the measured self-splicing fitness (ln) for ACACAGCAAUAUUACGCGUA ?
Result: -1.2

Q: Would you kindly share the measured self-splicing fitness (ln) for UGUUAGCAAUAUUACGAGAU ?
Result: -2.58

Hi! Can you tell me self-splicing fitness (ln) for each of these sequences?
1. AAGUAGCAAUAUUACGAAAG
2. CCAUAGCAAUAUUACGACAC
3. GAACAGCAAUAUUACGGGUA
4. CUUGAGCAAUAUUACGCCCU

Result:
1: -2.17; 2: -1.99; 3: -1.32; 4: -2.21
